System: OVCAR-3 ovarian
procedure text: NCI-60 one-dose screen, 48 h (100 = growth as untreated, 0 = no growth, -100 = all killed)
stated conditions: 10 µM unless noted
The panel holds about 83,000 compounds, 20% with a hit somewhere; the sample as a whole holds those more often.
property label: growth (%)
Please state the figure in %; there is no need to write the unit.

stdin: Find the recorded growth belonging to `CCN(CC)CCOc1ccc(/C(=C(/C)c2ccccc2)c2ccc(OC(C)=O)cc2)cc1` and report it.
stdout: 104

stdin: Similarly, `CCCCOc1ccc(/C=C2/SC(N3CCOCC3)=NC2=O)cc1OCC` ?
stdout: 115

stdin: Similarly, `COc1cc(/C=C/C(=O)/C=C/c2cc(OC)c3c(c2)OCO3)cc2c1OCO2` ?
stdout: 34.6

stdin: Similarly, `COc1ccc(C(=O)N2NC(=O)/C(=C/c3ccc(Br)cc3)N=C2c2ccccc2)cc1` ?
stdout: 119

stdin: Similarly, `CC(C)(C)n1cc(-c2ccnc(NCCNS(=O)(=O)c3ccc(C(F)(F)F)cc3)c2)c(-c2cccc(O)c2)n1` ?
stdout: 68.1

stdin: Similarly, `COc1cc2c(=O)n(C3CCCCCC3)c3c4cc[nH]c4ncc3c2cc1OC` ?
stdout: 89.1

stdin: Similarly, `O=C1/C(=C/c2ccc(Cl)cc2)CN(C(=O)CCN2CCC(=NO)CC2)C/C1=C\c1ccc(Cl)cc1` ?
stdout: -97.5

stdin: Similarly, `CCOC(=O)c1ccc2c(c1)c1c(C)c3cccnc3c(C)c1n2C` ?
stdout: 69.8

stdin: Similarly, `CCCCCCCC/C=C/CCCCCCCC1=NC(C)(C)CN1C(C)(C)CO` ?
stdout: 55.4

stdin: Similarly, `Cc1ccc(-c2csc(NC(=O)CCCCl)n2)cc1` ?
stdout: 101

stdin: Similarly, `CCOC(=O)/C(C#N)=C1/C(=O)Nc2ccccc21` ?
stdout: 134

stdin: Similarly, `CC(=O)Oc1csc(N(C(C)=O)c2cc(C(=O)O)cc(C(=O)O)c2)n1` ?
stdout: 105

stdin: Similarly, NC1=NN(O)C2=CC([N+](=O)[O-])C=CC2=N1 (stereo unspecified) ?
stdout: 99.8

stdin: Similarly, C=C1CCC2C(C)(CO)C(O)CCC2(C)C1C/C=C1/C(=O)OCC1O/C=C/c1ccccc1 (stereo unspecified) ?
stdout: 75.7

stdin: Similarly, `O=c1cc(Cc2ccc([N+](=O)[O-])cc2)[nH]c(=O)[nH]1` ?
stdout: 126

stdin: Similarly, `Clc1ccccc1-c1nc2ccccc2[nH]1` ?
stdout: 102

stdin: Similarly, `O=S(=O)(NCCCNc1nccc(-n2ccc3cccnc32)n1)c1cccc(C(F)(F)F)c1` ?
stdout: 112

stdin: Similarly, CCN(CC)CCC(CNc1ccnc2cc(Cl)ccc12)c1ccccc1 (stereo unspecified) ?
stdout: 79.9

stdin: Similarly, `Cc1ccc(S(=O)(=O)NCCNc2nccc(-c3c(-c4ccc(O)cc4)nc4sccn34)n2)cc1` ?
stdout: 110

stdin: Similarly, `COc1ccc(-c2[nH]nc(N)c2-c2cc(OC)c3c(c2)OCO3)cc1` ?
stdout: 64.9

stdin: Similarly, `CCCCCCCCCCCC(=O)NCCC[N+](C)(C)CC(=O)[O-]` ?
stdout: 99.8

stdin: Similarly, `O=C(/C=C\c1cccc([N+](=O)[O-])c1)/C=C/c1cccc([N+](=O)[O-])c1` ?
stdout: 67.5

stdin: Similarly, `NNc1cccc(/C=C/c2ccccc2)cc1=O` ?
stdout: 54.6

stdin: Similarly, `COc1cc(-c2nc(-c3nc4ccc(Cl)cc4[nH]3)cc3c2[nH]c2ccccc23)cc(OC)c1OC` ?
stdout: 82.8

stdin: Similarly, `CCOC(=O)NNC(=S)Nc1ccccc1` ?
stdout: 116

stdin: Similarly, `COc1ccncc1S(=O)(=O)NC(=O)Nc1ccc(Cl)c(Cl)c1` ?
stdout: 90

stdin: Similarly, `C=C1C(=O)O[C@H]2[C@H]1CC/C(Cn1cc(-c3cccc(Cl)c3)nn1)=C\CC[C@@]1(C)O[C@@H]21` ?
stdout: -92.8

stdin: Similarly, `Cc1ccc(/C=C2\CN(C(=O)CCN3CCC(=NO)CC3)C/C(=C\c3ccc(C)cc3)C2=O)cc1` ?
stdout: 8.71

stdin: Similarly, `O=C(Nc1ccc(NCCN2CCOCC2)nc1)c1ccc([N+](=O)[O-])cc1` ?
stdout: 114

stdin: Similarly, `C=COC(=O)CCCCCCCCC` ?
stdout: 120

stdin: Similarly, C=C1CC2(OC1=O)C(=O)N(CCCN1C(=O)C3(CC(=C)C(=O)O3)c3ccccc31)c1ccccc12 (stereo unspecified) ?
stdout: -13

stdin: Similarly, `N/C(=N\S(=O)(=O)c1ccccc1)Nc1nc2ccccc2s1` ?
stdout: 107

stdin: Similarly, `COc1cc(-c2nn(-c3cccc(NC(=O)Nc4cccc(C(F)(F)F)c4)c3)cc2-c2ccncc2)ccc1Cl` ?
stdout: -42

stdin: Similarly, `c1cc(C2=N[C@@H]3c4ccccc4C[C@@H]3O2)nc(C2=N[C@@H]3c4ccccc4C[C@@H]3O2)c1` ?
stdout: 109

stdin: Similarly, `FC(F)(F)c1ccccc1-c1cn2c(ccc3ccccc32)n1` ?
stdout: 88.3

stdin: Similarly, `COc1ccc(-c2nc(/C=N/Nc3cc(C)nc4ccc(Br)cc34)c(C)o2)cc1` ?
stdout: -96.6

stdin: Similarly, `Cc1cc(N/N=C/c2nc(-c3ccc(Br)cc3)oc2C)c2cc(Br)ccc2n1` ?
stdout: -13.4

stdin: Similarly, `O=C(NCc1cn(Cc2cccc(Oc3ccccc3)c2)nn1)c1cccnc1Nc1ccc(F)cc1` ?
stdout: 35.9

stdin: Similarly, `Cc1cc(C2(c3cc(C)c(O)cc3C)OS(=O)(=O)c3ccccc32)c(C)cc1O` ?
stdout: 107

stdin: Similarly, `O=C(Nc1cccc(-n2cc(-c3ccncc3)c(-c3ccc(Cl)c(O)c3)n2)c1)c1ccccc1` ?
stdout: 82.1

stdin: Similarly, O=S1(=O)CCC(N(/N=C/c2ccco2)c2ccccc2)C1 (stereo unspecified) ?
stdout: 105
